targetSystem: SWI/SNF-related matrix-associated actin-dependent regulator of chromatin subfamily A member 4 (Homo sapiens)
Sequence (P51532 whole entry): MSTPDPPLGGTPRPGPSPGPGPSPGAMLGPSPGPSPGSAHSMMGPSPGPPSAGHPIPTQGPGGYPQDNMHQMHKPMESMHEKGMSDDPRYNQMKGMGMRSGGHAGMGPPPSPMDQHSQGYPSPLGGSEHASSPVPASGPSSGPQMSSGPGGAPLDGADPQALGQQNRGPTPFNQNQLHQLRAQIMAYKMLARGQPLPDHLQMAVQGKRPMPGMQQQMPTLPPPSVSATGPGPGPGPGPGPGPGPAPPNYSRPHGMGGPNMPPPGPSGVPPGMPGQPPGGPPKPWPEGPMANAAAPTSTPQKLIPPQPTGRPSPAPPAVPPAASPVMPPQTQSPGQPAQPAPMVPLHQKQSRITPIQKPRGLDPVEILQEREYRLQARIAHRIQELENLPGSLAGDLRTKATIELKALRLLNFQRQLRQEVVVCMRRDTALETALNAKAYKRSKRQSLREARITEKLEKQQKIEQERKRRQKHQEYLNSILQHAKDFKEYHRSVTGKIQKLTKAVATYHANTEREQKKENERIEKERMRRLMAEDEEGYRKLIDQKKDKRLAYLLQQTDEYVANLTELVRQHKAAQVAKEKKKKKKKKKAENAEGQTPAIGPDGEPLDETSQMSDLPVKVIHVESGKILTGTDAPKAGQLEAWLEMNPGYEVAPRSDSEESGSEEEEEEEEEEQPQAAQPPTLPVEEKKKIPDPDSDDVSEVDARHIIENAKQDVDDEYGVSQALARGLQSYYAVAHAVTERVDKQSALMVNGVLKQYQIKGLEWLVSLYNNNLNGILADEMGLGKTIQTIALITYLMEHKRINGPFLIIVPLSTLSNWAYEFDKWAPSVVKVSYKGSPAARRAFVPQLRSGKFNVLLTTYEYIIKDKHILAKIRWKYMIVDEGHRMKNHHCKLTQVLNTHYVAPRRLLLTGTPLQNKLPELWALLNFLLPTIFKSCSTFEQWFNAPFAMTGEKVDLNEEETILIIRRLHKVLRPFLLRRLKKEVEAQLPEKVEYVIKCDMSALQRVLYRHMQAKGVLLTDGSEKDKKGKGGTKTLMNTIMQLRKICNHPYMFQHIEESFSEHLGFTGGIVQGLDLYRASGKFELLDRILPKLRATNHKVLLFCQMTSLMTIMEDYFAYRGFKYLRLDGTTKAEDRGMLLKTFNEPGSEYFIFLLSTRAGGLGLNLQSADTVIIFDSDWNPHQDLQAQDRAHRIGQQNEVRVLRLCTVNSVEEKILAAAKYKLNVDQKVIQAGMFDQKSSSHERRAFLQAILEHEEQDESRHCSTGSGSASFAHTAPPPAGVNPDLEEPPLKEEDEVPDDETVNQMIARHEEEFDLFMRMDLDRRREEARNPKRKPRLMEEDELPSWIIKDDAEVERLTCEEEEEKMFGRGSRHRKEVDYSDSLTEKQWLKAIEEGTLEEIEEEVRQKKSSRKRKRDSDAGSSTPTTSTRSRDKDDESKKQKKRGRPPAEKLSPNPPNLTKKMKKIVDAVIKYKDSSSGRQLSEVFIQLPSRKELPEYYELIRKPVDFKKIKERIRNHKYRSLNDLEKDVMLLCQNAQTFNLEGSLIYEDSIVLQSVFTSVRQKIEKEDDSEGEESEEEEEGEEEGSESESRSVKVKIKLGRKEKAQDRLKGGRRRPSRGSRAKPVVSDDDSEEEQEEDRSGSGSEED
procedureDetails: Inhibition of His6-tagged human recombinant SMARCA4 bromodomain expressed in Escherichia coli BL21(DE3)-R3-pRARE2 cells after 30 mins using biotinylated ligand by Alpha screen displacement assay
testReadout: IC50
Field: value (include unit after the number)

query: Given the molecule `CCN1CCN(/C=C2\CCn3c2nc(=O)c2ccccc23)CC1` , what is its reported IC50?
result: 6.9 µM

query: Given the molecule `O=c1nc2n(c3ccccc13)CC/C2=C\N1CCCC1` , what is its reported IC50?
result: 9.6 µM

query: Given the molecule `CN1CCCN(/C=C2\CCn3c2nc(=O)c2ccccc23)CC1` , what is its reported IC50?
result: 22 µM

query: Given the molecule `CN1CCN(/C=C2\CCn3c2nc(=O)c2ccccc23)CC1` , what is its reported IC50?
result: 7.3 µM

query: Given the molecule `O=c1nc2n(c3ccccc13)CC/C2=C\N1CCCCC1` , what is its reported IC50?
result: 6.2 µM

query: Given the molecule `CN(C)/C=C1\CCn2c1nc(=O)c1ccccc12` , what is its reported IC50?
result: 11 µM

====

targetSystem: Protein polybromo-1 (Homo sapiens, UniProt Q86U86)
Sequence (Q86U86 whole entry, canonical isoform): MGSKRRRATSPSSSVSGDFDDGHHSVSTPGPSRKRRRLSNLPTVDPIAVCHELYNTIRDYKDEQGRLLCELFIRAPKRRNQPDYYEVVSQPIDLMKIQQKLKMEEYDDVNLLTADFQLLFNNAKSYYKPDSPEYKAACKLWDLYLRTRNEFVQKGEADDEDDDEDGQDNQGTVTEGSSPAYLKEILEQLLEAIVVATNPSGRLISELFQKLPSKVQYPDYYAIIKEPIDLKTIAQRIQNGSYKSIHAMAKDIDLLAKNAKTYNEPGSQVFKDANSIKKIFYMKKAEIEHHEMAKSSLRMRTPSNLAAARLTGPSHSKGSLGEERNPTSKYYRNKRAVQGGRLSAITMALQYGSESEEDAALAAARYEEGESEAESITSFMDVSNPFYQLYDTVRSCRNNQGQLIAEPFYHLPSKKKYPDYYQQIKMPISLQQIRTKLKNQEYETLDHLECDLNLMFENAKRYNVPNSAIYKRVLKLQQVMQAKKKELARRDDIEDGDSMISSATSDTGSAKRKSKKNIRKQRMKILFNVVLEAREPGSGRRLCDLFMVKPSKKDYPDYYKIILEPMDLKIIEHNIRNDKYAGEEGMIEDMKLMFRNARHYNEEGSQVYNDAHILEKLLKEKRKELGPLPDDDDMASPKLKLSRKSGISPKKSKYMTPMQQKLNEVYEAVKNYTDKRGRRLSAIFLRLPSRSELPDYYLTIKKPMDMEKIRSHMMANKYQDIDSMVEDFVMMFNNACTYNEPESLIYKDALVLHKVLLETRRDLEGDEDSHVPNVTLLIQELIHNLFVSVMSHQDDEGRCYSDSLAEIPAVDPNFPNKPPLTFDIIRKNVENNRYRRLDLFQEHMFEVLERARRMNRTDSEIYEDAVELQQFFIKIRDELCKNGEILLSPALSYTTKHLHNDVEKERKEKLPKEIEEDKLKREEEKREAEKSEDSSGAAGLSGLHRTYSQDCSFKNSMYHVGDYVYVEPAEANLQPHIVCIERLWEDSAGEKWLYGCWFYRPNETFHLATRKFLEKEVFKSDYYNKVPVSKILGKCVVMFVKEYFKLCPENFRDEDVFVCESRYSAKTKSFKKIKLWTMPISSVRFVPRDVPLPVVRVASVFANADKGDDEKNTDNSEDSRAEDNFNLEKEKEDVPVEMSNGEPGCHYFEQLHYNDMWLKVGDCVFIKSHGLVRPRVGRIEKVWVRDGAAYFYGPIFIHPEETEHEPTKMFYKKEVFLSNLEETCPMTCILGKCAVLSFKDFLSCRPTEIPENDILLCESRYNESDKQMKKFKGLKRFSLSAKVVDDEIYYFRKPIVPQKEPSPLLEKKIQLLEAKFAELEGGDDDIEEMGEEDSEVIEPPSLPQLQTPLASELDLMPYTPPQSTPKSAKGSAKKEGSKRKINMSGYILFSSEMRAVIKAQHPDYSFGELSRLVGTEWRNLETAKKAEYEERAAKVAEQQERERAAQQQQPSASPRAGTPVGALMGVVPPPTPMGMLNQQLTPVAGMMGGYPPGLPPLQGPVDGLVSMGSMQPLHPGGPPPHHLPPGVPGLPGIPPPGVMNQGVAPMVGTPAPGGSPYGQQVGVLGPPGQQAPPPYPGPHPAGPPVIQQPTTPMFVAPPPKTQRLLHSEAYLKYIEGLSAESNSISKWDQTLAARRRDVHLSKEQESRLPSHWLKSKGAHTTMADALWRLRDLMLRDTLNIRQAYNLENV
Where ΔTm equals or exceeds 4 °C, the correct label is 1 (yes); where it does not, the label is 0 (no).

query: Reported ΔTm reaches at least 4 °C for `CCC(/C=C1\CCn2c1nc(=O)c1c(Cl)cccc12)CC` ?
result: 1 (yes)

query: Reported ΔTm reaches at least 4 °C for `O=c1nc2n(c3cccc(Cl)c13)CC/C2=C\N1CCCCC1` ?
result: 1 (yes)

query: Reported ΔTm reaches at least 4 °C for `O=c1nc2n(c3cccc(Cl)c13)CC/C2=C\N1CCOCC1` ?
result: 0 (no)

query: Reported ΔTm reaches at least 4 °C for `CN1CCN(/C=C2\CCn3c2nc(=O)c2c(Cl)cccc23)CC1` ?
result: 1 (yes)

query: Reported ΔTm reaches at least 4 °C for `CN1CCC(/C=C2\CCn3c2nc(=O)c2c(Cl)cccc23)CC1` ?
result: 0 (no)

query: Reported ΔTm reaches at least 4 °C for `O=c1nc2n(c3cccc(Cl)c13)CC/C2=C\C1CCOCC1` ?
result: 0 (no)

query: Reported ΔTm reaches at least 4 °C for `CN(C)/C=C1\CCn2c1nc(=O)c1c(Cl)cccc12` ?
result: 0 (no)

query: Reported ΔTm reaches at least 4 °C for `O=c1nc2n(c3cccc(Cl)c13)CC/C2=C\C1CCCCC1` ?
result: 0 (no)

query: Reported ΔTm reaches at least 4 °C for `CCN(/C=C1\CCn2c1nc(=O)c1c(Cl)cccc12)CC` ?
result: 0 (no)

query: Reported ΔTm reaches at least 4 °C for `O=c1nc2n(c3cccc(Cl)c13)CC/C2=C\N1CCCC1` ?
result: 0 (no)

====

Assign pKd to each entry below.
targetSystem: Protein polybromo-1 (Homo sapiens)
procedureDetails: Binding affinity to His6-tagged human recombinant PB1 bromodomain isoform 5 expressed in Escherichia coli BL21(DE3)-R3-pRARE2 cells by VP-ITC microcalorimetry
Remember, pKd is on a log scale: it is -log10 of the molar concentration.

query: Given the compound `O=c1nc2n(c3cccc(Cl)c13)CC/C2=C\N1CCCCC1` , what is its reported pKd?
result: 6.90

query: Given the compound `O=c1nc2n(c3ccccc13)CC/C2=C\N1CCCCC1` , what is its reported pKd?
result: 5.92

query: Given the compound `CN(C)/C=C1\CCn2c1nc(=O)c1c(Cl)cccc12` , what is its reported pKd?
result: 6.86

query: Given the compound `O=c1nc2n(c3ccccc13)CC/C2=C\N1CCCC1` , what is its reported pKd?
result: 5.64

query: Given the compound `CCN1CCN(/C=C2\CCn3c2nc(=O)c2c(Cl)cccc23)CC1` , what is its reported pKd?
result: 6.85

====

targetSystem: SWI/SNF-related matrix-associated actin-dependent regulator of chromatin subfamily A member 2 (Homo sapiens) (UniProt P51531)
Sequence (P51531 whole entry): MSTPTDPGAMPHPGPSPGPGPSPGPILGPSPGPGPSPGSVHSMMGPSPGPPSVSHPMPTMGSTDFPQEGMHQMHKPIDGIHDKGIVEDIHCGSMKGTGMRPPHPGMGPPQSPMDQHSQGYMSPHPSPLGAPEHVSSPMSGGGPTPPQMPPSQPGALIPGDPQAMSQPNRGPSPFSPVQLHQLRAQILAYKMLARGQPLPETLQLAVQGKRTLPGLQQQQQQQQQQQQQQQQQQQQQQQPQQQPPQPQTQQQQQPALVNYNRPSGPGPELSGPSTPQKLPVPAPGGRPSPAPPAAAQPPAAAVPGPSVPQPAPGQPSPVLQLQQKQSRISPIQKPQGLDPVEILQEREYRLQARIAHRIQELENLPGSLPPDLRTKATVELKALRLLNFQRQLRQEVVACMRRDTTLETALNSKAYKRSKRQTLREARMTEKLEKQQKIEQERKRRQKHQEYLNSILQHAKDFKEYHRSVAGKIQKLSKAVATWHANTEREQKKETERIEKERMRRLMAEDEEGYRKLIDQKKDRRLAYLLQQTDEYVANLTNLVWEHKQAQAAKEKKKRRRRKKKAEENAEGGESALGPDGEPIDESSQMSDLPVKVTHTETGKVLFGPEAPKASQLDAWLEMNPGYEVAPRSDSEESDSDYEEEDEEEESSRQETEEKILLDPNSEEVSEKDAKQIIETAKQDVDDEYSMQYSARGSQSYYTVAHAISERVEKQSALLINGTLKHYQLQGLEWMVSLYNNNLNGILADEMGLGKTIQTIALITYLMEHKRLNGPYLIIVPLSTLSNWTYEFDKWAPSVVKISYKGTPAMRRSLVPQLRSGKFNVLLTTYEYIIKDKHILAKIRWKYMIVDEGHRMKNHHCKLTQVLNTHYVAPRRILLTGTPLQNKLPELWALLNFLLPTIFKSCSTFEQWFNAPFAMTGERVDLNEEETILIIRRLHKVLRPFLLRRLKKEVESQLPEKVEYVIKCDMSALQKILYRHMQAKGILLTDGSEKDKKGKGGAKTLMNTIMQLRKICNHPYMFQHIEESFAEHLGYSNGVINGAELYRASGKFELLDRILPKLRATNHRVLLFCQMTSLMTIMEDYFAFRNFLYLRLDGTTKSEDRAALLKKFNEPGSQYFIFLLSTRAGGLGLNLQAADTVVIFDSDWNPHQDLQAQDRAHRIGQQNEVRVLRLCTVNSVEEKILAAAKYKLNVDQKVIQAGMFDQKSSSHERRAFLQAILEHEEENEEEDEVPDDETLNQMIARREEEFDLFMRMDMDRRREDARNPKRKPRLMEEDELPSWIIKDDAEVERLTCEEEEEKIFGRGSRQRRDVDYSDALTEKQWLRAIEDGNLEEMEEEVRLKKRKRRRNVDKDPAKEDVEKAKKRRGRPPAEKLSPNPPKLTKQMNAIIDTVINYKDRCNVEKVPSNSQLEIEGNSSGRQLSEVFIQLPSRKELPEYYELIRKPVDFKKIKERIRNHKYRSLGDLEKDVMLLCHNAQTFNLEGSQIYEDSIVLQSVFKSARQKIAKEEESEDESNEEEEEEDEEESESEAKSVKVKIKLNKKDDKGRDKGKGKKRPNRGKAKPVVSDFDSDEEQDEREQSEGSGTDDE
procedureDetails: Binding affinity to His6-tagged human recombinant SMARCA2A bromodomain expressed in Escherichia coli BL21(DE3)-R3-pRARE2 cells assessed as change in melting temperature at 10 uM by SyproOrange dye based DSF thermal shift assay
// map ΔTm onto a label; ranges low = under 3 °C, medium = from 3 °C up to 4 °C, high = 4 °C and over

query: Lab note: which band did `O=c1nc2n(c3cccc(Cl)c13)CC/C2=C\C1CCOCC1` land in?
result: medium

query: Lab note: which band did `O=c1nc2n(c3cccc(Cl)c13)CC/C2=C\C1CCCCC1` land in?
result: low

query: Lab note: which band did `O=c1nc2n(c3cccc(Cl)c13)CC/C2=C\N1CCCCC1` land in?
result: high

query: Lab note: which band did `CN1CCN(/C=C2\CCn3c2nc(=O)c2c(Cl)cccc23)CC1` land in?
result: high

query: Lab note: which band did `O=c1nc2n(c3cccc(Cl)c13)CC/C2=C\N1CCOCC1` land in?
result: low

query: Lab note: which band did `CN(C)/C=C1\CCn2c1nc(=O)c1c(Cl)cccc12` land in?
result: high

query: Lab note: which band did `CN1CCC(/C=C2\CCn3c2nc(=O)c2c(Cl)cccc23)CC1` land in?
result: low

query: Lab note: which band did `CCC(/C=C1\CCn2c1nc(=O)c1c(Cl)cccc12)CC` land in?
result: medium

query: Lab note: which band did `CCN(/C=C1\CCn2c1nc(=O)c1c(Cl)cccc12)CC` land in?
result: medium

query: Lab note: which band did `CCN1CCN(/C=C2\CCn3c2nc(=O)c2c(Cl)cccc23)CC1` land in?
result: high

query: Lab note: which band did `O=c1nc2n(c3cccc(Cl)c13)CC/C2=C\N1CCCC1` land in?
result: low

====

targetSystem: SWI/SNF-related matrix-associated actin-dependent regulator of chromatin subfamily A member 4 (Homo sapiens)
procedureDetails: Binding affinity to His6-tagged human recombinant SMARCA4 bromodomain expressed in Escherichia coli BL21(DE3)-R3-pRARE2 cells assessed as change in melting temperature at 10 uM by SyproOrange dye based DSF thermal shift assay
testReadout: ΔTm (°C)
# output: bare number, implied unit °C

query: Given the compound `O=c1nc2n(c3cccc(Cl)c13)CC/C2=C\C1CCOCC1` , what is its reported ΔTm?
result: 2.8

query: Given the compound `CN1CCN(/C=C2\CCn3c2nc(=O)c2c(Cl)cccc23)CC1` , what is its reported ΔTm?
result: 5.4

query: Given the compound `O=c1nc2n(c3cccc(Cl)c13)CC/C2=C\N1CCOCC1` , what is its reported ΔTm?
result: 2.7

query: Given the compound `O=c1nc2n(c3cccc(Cl)c13)CC/C2=C\N1CCCC1` , what is its reported ΔTm?
result: 1.4
